tested on: HCV replicon in Huh-7 cells; experiment: HCV replicon assay (NPT ELISA) for inhibition of HCV replication; format: cell-based; conditions: Hepatitis C virus, Huh-7, 72 h, HCV replicon-containing Huh-7 cells, three days incubation; read-out: EC50
EC50 by entry:
experimentalEndpoint: EC50

>>> valueobserved("COc1ccc2c(O[C@@H]3C[C@H]4C(=O)N[C@@]5(C(=O)NS(=O)(=O)C6CC6)C[C@@H]5/C=C\\CCCC(=O)N[C@H](C(C)(C)C)C(=O)N4C3)cc(-c3ccccc3)nc2c1 [Compound 9]")
"< 1 µM"
>>> valueobserved("COc1ccc2c(O[C@@H]3C[C@H]4C(=O)N[C@@]5(C(=O)NS(=O)(=O)C6CC6)C[C@@H]5/C=C\\CCCC(=O)N(C)[C@@H](C(C)(C)C)C(=O)N4C3)cc(-c3ccccc3)nc2c1 [Compound 11]")
"> 10 µM"
>>> valueobserved("COc1ccc2c(O[C@@H]3C[C@H]4C(=O)NC5(C(=O)NS(=O)(=O)C6CC6)CC5/C=C\\CCCC(=O)N[C@@H](C(C)(C)C)C(=O)N4C3)cc(-c3ccccc3)nc2c1 (stereo partly shown) [Compound 4]")
"1 to 10 µM"
>>> valueobserved("COC(=O)CC1NC(=O)CCC/C=C\\[C@@H]2C[C@@]2(C(=O)NS(=O)(=O)C2CC2)NC(=O)[C@@H]2C[C@@H](Oc3cc(-c4ccccc4)nc4cc(OC)ccc34)CN2C1=O (stereo partly shown) [Compound 13]")
"1 to 10 µM"
>>> valueobserved("COc1ccc2c(O[C@@H]3C[C@H]4C(=O)N[C@]5(C(=O)NS(=O)(=O)C6CC6)C[C@H]5/C=C\\CCCC(=O)N(C)CC(=O)N4C3)cc(-c3nc(C(C)C)cs3)nc2c1C [Compound 18]")
"< 1 µM"
>>> valueobserved("COC(=O)C[C@@H]1NC(=O)CCC/C=C\\[C@@H]2C[C@@]2(C(=O)NS(=O)(=O)C2CC2)NC(=O)[C@@H]2C[C@@H](Oc3cc(-c4ccccc4)nc4cc(OC)ccc34)CN2C1=O [Compound 12]")
"1 to 10 µM"
>>> valueobserved("COc1ccc2c(O[C@@H]3C[C@H]4C(=O)N[C@]5(C(=O)NS(=O)(=O)C6CC6)C[C@H]5/C=C\\CCCC(=O)N[C@@H](CC(=O)OC(C)(C)C)C(=O)N4C3)cc(-c3nc(C(C)C)cs3)nc2c1C [Compound 16]")
"< 1 µM"
>>> valueobserved("C=CCCCC(=O)N[C@@H](C(=O)N1C[C@H](Oc2cc(-c3ccccc3)nc3cc(OC)ccc23)C[C@H]1C(=O)N[C@@]1(C(=O)NS(=O)(=O)C2CC2)C[C@@H]1C=C)C(C)(C)C [Compound 8]")
"1 to 10 µM"
>>> valueobserved("COc1ccc2c(O[C@@H]3C[C@H]4C(=O)N[C@]5(C(=O)NS(=O)(=O)C6CC6)C[C@H]5/C=C\\CCCC(=O)N[C@H](C(C)(C)C)C(=O)N4C3)cc(-c3ccccc3)nc2c1 [Compound 5]")
"> 10 µM"
>>> valueobserved("COc1ccc2c(O[C@@H]3C[C@H]4C(=O)N[C@]5(C(=O)NS(=O)(=O)C6CC6)C[C@H]5/C=C\\CCCC(=O)N(C)[C@@H](C(C)(C)C)C(=O)N4C3)cc(-c3ccccc3)nc2c1 [Compound 10]")
"> 10 µM"

----------
System: HCV replicon in Huh-7 cells
Assay: HCV replicon assay (NPT ELISA) for inhibition of HCV replication
Assay type: cell-based
Settings: Hepatitis C virus, Huh-7, 72 h, HCV replicon-containing Huh-7 cells, three days incubation; read-out: EC50
Protocol: Compounds claimed herein are tested for the ability to inhibit viral replication of the Hepatitis C replicon in cultured cells in which the HCV replicon construct has been incorporated. […] In this assay HCV replicon containing cells are treated with different concentrations of the test compound to ascertain the ability of the test compound to suppress replication of the HCV replicon. […] The NPT level of each sample is measured using a captured ELISA. […]
pEC50: −log10 of the molar value.
experimentalEndpoint: pEC50

>>> valueobserved("CCOC(=O)[C@]12C[C@H]1/C=C\\CCCC(=O)N[C@@H](C(C)(C)C)C(=O)N1C[C@H](Oc3cc(-c4ccccc4)nc4cc(OC)ccc34)C[C@H]1C(=O)N2 [Compound 2]")
"< 5.00"
>>> valueobserved("COc1ccc2c(O[C@@H]3C[C@H]4C(=O)N[C@]5(C(=O)NS(=O)(=O)C6CC6)C[C@H]5/C=C\\CCCC(=O)N[C@@H](CC(=O)N5CCCC(F)(F)C5)C(=O)N4C3)cc(-c3nc(C(C)C)cs3)nc2c1C [Compound 17]")
"> 6.00"
>>> valueobserved("CCOC(=O)C12CC1/C=C\\CCCC(=O)N(CCCCCC(=O)O)[C@@H](C(C)(C)C)C(=O)N1C[C@H](Oc3cc(-c4ccccc4)nc4cc(OC)ccc34)C[C@H]1C(=O)N2 (some centres unmarked) [Compound 3]")
"< 5.00"
>>> valueobserved("CCOC(=O)[C@@]12C[C@@H]1/C=C\\CCCC(=O)N[C@@H](C(C)(C)C)C(=O)N1C[C@H](Oc3cc(-c4ccccc4)nc4cc(OC)ccc34)C[C@H]1C(=O)N2 [Compound 1]")
"< 5.00"
>>> valueobserved("COc1ccc2c(O[C@@H]3C[C@H]4C(=O)NC5(C(=O)NS(=O)(=O)C6CC6)CC5/C=C\\CCCC(=O)N[C@@H](CC(=O)OC(C)(C)C)C(=O)N4C3)cc(-c3ccccc3)nc2c1 (some centres unmarked) [Compound 14]")
"> 6.00"
